Assign log10 of MIC to each entry below.
- Tested on: Staphylococcus aureus
- method: Antibacterial activity against Staphylococcus aureus harbouring GyrA D83N mutant by CLSI method
- Type: functional
Would you kindly interpret these values as log10 of MIC expressed in µg/mL?

Batch: log10 of MIC for all items listed.
1. O=c1ccc2ccc(F)c3c2n1CC3C[C@H]1OC[C@H](NCc2cc3c(nn2)OCCS3)CO1 (stereo partly drawn)
2. O=c1ccc2ccc(F)c3c2n1CC3C[C@H]1OC[C@H](NCc2cc3c(cn2)OCCC3)CO1 (stereo partly drawn)
3. COc1ccc2ncc(F)c(C[C@H](O)[C@H]3OC[C@H](NC(=O)c4ccc5c(n4)NC(=O)CS5)CO3)c2n1
4. COc1ccc2ncc(F)c(C[C@H](O)[C@H]3OC[C@H](NC(=O)c4ccc5c(n4)NC(=O)CO5)CO3)c2n1
5. O=C1COc2ccc(CN[C@H]3CO[C@H](CC4Cn5c(=O)ccc6ncc(F)c4c65)OC3)nc2N1 (stereo partly drawn)

Reply:
0.90
0.30
-0.60
0.00
0.90

Count: 3. Required value per item: log10 of MIC.
1. O=c1ccc2ncc(F)c3c2n1CC3C[C@H]1OC[C@H](NCc2ccc3c(c2)OCCO3)CO1 (stereo partly drawn)
2. O=c1ccc2ccc(F)c3c2n1CC3C[C@H]1OC[C@H](NCc2ccc3c(c2)OCCO3)CO1 (stereo partly drawn)
3. COc1ccc2ncc(F)c(C[C@H](O)[C@H]3OC[C@H](NC(=O)c4ccc5c(c4)OCCO5)CO3)c2n1

Reply:
1: 0.30; 2: 0.60; 3: 0.30
